Entry source: patent US20230295293A1

ka values, listed per item
- SYSTEM: T1, human FRα (Homo sapiens, UniProt P15328)
- T1 construct: CD33 leader (signal peptide) (N, cleaved yes); made in house; host or cells: in-house suspension-adapted CHO cell line
- T1 sequence (P15328 with tags, fused parts or gaps): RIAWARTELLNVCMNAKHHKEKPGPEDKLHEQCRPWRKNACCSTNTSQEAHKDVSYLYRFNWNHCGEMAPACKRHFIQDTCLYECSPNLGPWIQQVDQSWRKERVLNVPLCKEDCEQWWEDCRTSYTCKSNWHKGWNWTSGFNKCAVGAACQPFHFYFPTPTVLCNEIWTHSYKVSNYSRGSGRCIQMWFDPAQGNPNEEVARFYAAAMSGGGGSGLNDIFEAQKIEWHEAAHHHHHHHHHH
- EXPERIMENT_DESCRIPTION: Biacore T200 surface plasmon resonance affinity
- Format: binding
- MEASUREMENT_SETUP: SPR 25° C.
Numbers only here, please. The scale is M⁻¹ s⁻¹.

A selection of reference data follows.
• AB1370026: anti-FRα fully human IgG1 antibody; VH SEQ ID NO: 39, VL SEQ ID NO: 40 (antibody, V domains shown) VH: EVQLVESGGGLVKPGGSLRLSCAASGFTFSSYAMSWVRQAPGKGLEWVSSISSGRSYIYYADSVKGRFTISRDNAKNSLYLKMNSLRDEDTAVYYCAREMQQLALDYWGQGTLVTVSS VL: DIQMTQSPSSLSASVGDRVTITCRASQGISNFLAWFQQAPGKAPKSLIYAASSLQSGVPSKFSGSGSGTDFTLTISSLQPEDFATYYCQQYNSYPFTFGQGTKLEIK = 279000
• AB1370083: anti-FRα fully human IgG1 antibody; VH SEQ ID NO: 43, VL SEQ ID NO: 44 (antibody, V domains shown) VH: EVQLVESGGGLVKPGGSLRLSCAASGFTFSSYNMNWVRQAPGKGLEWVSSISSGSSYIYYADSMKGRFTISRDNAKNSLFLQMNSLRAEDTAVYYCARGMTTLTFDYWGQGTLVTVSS VL: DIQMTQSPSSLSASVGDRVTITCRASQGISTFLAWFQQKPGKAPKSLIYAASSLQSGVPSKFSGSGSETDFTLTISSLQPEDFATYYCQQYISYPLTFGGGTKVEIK = 145000

The value of ka measured for the molecule AB1370095: anti-FRα fully human IgG1 antibody; VH SEQ ID NO: 45, VL SEQ ID NO: 46 (antibody, V domains shown) VH: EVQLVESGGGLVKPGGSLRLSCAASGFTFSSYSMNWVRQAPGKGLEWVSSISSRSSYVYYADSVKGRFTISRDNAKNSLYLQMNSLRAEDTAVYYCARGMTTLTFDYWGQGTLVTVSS VL: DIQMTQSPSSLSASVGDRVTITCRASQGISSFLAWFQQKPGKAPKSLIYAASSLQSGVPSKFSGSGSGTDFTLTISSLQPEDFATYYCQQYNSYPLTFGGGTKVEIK turned out to be 95700
